System: UACC-257 melanoma
TEST: NCI tumour cell line growth inhibition, 48 h
RECORDED_METRIC: TGI

The examples below pair each entry with its known result.
| COMPOUND | TGI |
| --- | --- |
| CCCCCCCCCC/C=C/CC(=O)SCCNC(=O)CCNC(=O)[C@@H](O)C(C)(C)COP(=O)(O)OP(=O)(O)OCC1OC(n2cnc3c(N)ncnc32)C(O)C1OP(=O)(O)O (some centres undefined) | > 10 µM |
| CC(=O)O.CC(=O)O.CC(=O)O.CC(=O)O.CC(=O)O.CC(=O)O.O.[Ti].[Ti] | > 100 µM |
| COC(=O)C(C(=O)C(=O)Nc1cccc(OC)c1)c1cnc2ccccc2n1 (centres undefined) | > 100 µM |
| O=[n+]1c2c(n([O-])c3ccccc31)CCCCCCCCCC2 | > 100 µM |
| CCOc1nc(-c2ccccc2)cc2c(O)c(-c3nnco3)[nH]c(=O)c12 | > 100 µM |

# map each compound to its TGI
1. O=C1CN=C(C[N+](=O)[O-])c2ccccc21
2. COc1cc(C(=O)c2cc(C)c3[nH]c4ccc(Cl)cc4c3c2C)cc(OC)c1OC

[reply]
["> 100 µM", "32.3 µM"]

Give one value of TGI per listed compound.
1. Cc1ccc(S(=O)(=O)NCC2CCCCC2=O)cc1 (centres undefined)
2. CC(=O)n1nc(-c2ccccc2)n(/N=C/c2ccc([N+](=O)[O-])cc2)c1=O

[reply]
["57.7 µM", "> 100 µM"]

----------
Tested on: NCI-H460 lung
TEST: NCI tumour cell line growth inhibition, 48 h
RECORDED_METRIC: TGI (µM)
Give bare numbers, in µM.

List TGI for every entry below, keeping the order given.
1. C=C(C=O)C1CCC2(C(=O)O)CCC3(C)C(CCC4C5(C)CCC(O)C(C)(C)C5CCC43C)C12 (stereo not given)
2. CCN1CCN(c2ccc(Nc3cc(N(C)C(=O)Nc4c(Cl)c(OC)cc(OC)c4Cl)ncn3)cc2)CC1
3. COc1ccc(/C=C(/C(=O)c2ccc(Cl)cc2)N2C=CC=CC2=C(C#N)C#N)cc1OC
4. c1ccc2sc(C3(N4CCCC4)CCCCCC3)cc2c1

[reply]
[4.43, 5.42, 25.5, 30.1]

----------
Tested on: CAKI-1 renal
TEST: NCI tumour cell line growth inhibition, 48 h
RECORDED_METRIC: GI50

| COMPOUND | GI50 |
| --- | --- |
| CC(SC(C)C(=O)N/N=C/c1cccc(Cl)c1)C(=O)N/N=C\c1cccc(Cl)c1 (stereo not given) | 61.4 µM |

Batch lookup, GI50 per entry.
1. C[C@H]1c2cccc(O)c2C(O)=C2C(=O)[C@]3(O)C(O)=C(C(N)=O)C(=O)[C@@H](N(C)C)[C@@H]3[C@@H](O)[C@@H]21
2. O=C1NC(=Nc2ccccc2)S/C1=C\c1ccc2ncccc2c1
3. COc1cc(Nc2cn[nH]c2-c2ccc(Cl)cc2)cc(OC)c1OC
4. CNCCCn1cc(C2=C(c3cn(C)c4ccccc34)C(=O)NC2=O)c2ccccc21

[reply]
1. 2.08 µM
2. > 25 µM
3. 2.34 µM
4. 4.13 µM

----------
Field: TGI. Provide a value for each of the compounds that follow.
Tested on: HOP-18 NSCLC
TEST: NCI tumour cell line growth inhibition, 48 h

These recorded examples may help you get a feel for the data.
| COMPOUND | TARGET_OF_ASSAY | RESULT |
| --- | --- | --- |
| O=C(O/N=C1/CCCC/C1=C\c1ccccc1)c1ccccc1 | HOP-18 NSCLC | > 100 µM |
| CS(=O)(=O)N/N=C/CN1C(=O)c2ccccc2C1=O | HOP-18 NSCLC | > 100 µM |
| Cc1ccc(S(=O)(=O)NCC2CCCCC2=O)cc1 (stereo unspecified) | HOP-18 NSCLC | > 100 µM |

Respectfully, I request TGI for each entry included below.
1. CC(=O)OC1CCC2(C)C3CCC4(C)C(c5ccc(=O)oc5)CC5OC54C3CCC2(O)C1 (stereo unspecified)
2. O=C(OC(=O)n1ccc2ccccc21)n1ccc2ccccc21
3. CNC(=S)NC1CCCCC1NC(=S)NC (stereo unspecified)

[reply]
7.38 µM
> 100 µM
> 100 µM
